Data credit: the Deep4Chem optical property database

# Test Name: solvent given as SMILES
# Stated Conditions: in CC#N
Assign emission maximum to each entry below.
Please respond with the number in nm and leave the unit unwritten.

**Query** What value of emission maximum has been recorded for this entry: CC1(C)CC(/C=C/c2ccc(-n3cccn3)cc2)=CC(=C(C#N)C#N)C1
**Result** 538

**Query** Please do the same for CCc1c(C)[nH]c(C2=[N+]3C(=Cc4c(C)cc(C)n4[B-]3(F)F)c3ccccc32)c1C as well.
**Result** 632

**Query** Please do the same for CC1CCC(O)(c2ccc(-c3cccs3)s2)CC1 (stereo not given) as well.
**Result** 405

**Query** Please do the same for COC(=O)c1nc2c(OCc3ccccc3)nc(N)nc2n1Cc1ccccc1 as well.
**Result** 382

**Query** Please do the same for C[Si](C)(C)[Si](C)(C)c1ccc2cc3ccccc3cc2c1 as well.
**Result** 412

**Query** Please do the same for CN(C)c1cc(-c2ccc(C#Cc3ccncc3)cc2)cc2ccccc12 as well.
**Result** 417.83

**Query** Please do the same for CCOC(=O)COc1ccc(/C=C/C2=C3c4ccccc4C(c4ccc[nH]4)=[N+]3[B-](F)(F)n3ccc(C)c32)cc1 as well.
**Result** 617

**Query** Please do the same for N=c1oc2ccccc2cc1-c1ccc([N+](=O)[O-])cc1 as well.
**Result** 550

**Query** Please do the same for Cc1cc2nc3c(=O)n(C)c(=O)nc-3n(C)c2cc1C as well.
**Result** 531

**Query** Please do the same for CN(C)c1ccc(C#Cc2ccc(C#N)cc2)cc1 as well.
**Result** 571

* * *

# Test Name: solvent given as SMILES
# Stated Conditions: in ClC(Cl)Cl
Measurement Type: emission maximum

**Query** What value of emission maximum has been recorded for this entry: CCN(CC)c1ccc2cc(/C=C/C3=CC(/C=C/c4cc5ccc(N(CC)CC)cc5oc4=O)=[O+][B-](F)(F)O3)c(=O)oc2c1
**Result** 669 nm

**Query** Please do the same for CCCCCCCCc1ccc(-c2c3cc(-c4cc(CCCCCCCC)c(-c5ccc(-c6sc(/C=C7\SC(SCC)=NC7=O)cc6CCCCCCCC)s5)s4)sc3c(-c3ccc(CCCCCCCC)s3)c3cc(-c4cc(CCCCCCCC)c(-c5ccc(-c6sc(/C=C7\SC(SCC)=NC7=O)cc6CCCCCCCC)s5)s4)sc23)s1 as well.
**Result** 653 nm

**Query** Please do the same for CN(C)/C=N\c1ccc2c3c(cccc13)C(=O)c1ccccc1-2 as well.
**Result** 575 nm

**Query** Please do the same for COc1ccc(-c2oc3cccc4c5c(-c6ccc(OC)cc6)c(=N)oc6cccc(c2c34)c65)cc1 as well.
**Result** 505 nm

**Query** Please do the same for O=C1C=CC2=Cc3ccccc3B(O)N12 as well.
**Result** 420 nm

**Query** Please do the same for c1cc2cccc3c4cccc5cccc(c(c1)c23)c54 as well.
**Result** 443 nm

**Query** Please do the same for CCOC(=O)/C(C#N)=C/c1cc2c3ccccc3n(C)c2cc1OC as well.
**Result** 468 nm

**Query** Please do the same for COc1ccc2cc(-c3ccc(S(C)(=O)=O)cc3)oc(=O)c2c1 as well.
**Result** 408 nm

**Query** Please do the same for CCn1c2ccccc2sc2c(C#N)c3[nH]c4ccccc4sc3c(C#N)c21 as well.
**Result** 615 nm

**Query** Please do the same for CO[B-]1(OC)n2c(C)cc(C)c2C(c2ccc(I)cc2)=C2C(C)=CC(C)=[N+]21 as well.
**Result** 517.6 nm

**Query** Please do the same for CC1(C)c2cccc(-c3nc(-c4ccccc4)nc(-c4ccccc4)n3)c2Oc2c(-n3c4ccccc4c4ccccc43)cccc21 as well.
**Result** 454 nm

**Query** Please do the same for c1cc2ccc3cccc4c(-c5cc(-c6nccs6)nc(-c6nccs6)c5)cc(c1)c2c34 as well.
**Result** 439 nm

**Query** Please do the same for N#CC1=CC(Br)=CC(C#N)=P1(c1ccccc1)c1ccccc1 as well.
**Result** 519 nm

**Query** Please do the same for O=C(/C=C/c1cn(-c2ccccc2)nc1-c1ccccc1)c1c(O)c2ccccc2oc1=O as well.
**Result** 493 nm

**Query** Please do the same for CN(C)c1ccc(/C=C/C=C/c2nc3ccccc3o2)cc1 as well.
**Result** 517 nm

**Query** Please do the same for C/C(=N\Nc1ccc(C#N)cc1)c1cccc(/C(C)=N/Nc2ccc(C#N)cc2)c1 as well.
**Result** 476 nm

**Query** Please do the same for CCCCOc1ccc(-c2oc3cc4n(c3c2-c2ccc(OCCCC)cc2)[B-](F)(F)[N+]2=Cc3cc5oc(-c6ccc(OCCCC)cc6)c(-c6ccc(OCCCC)cc6)c5n3[B-](F)(F)[N+]2=C4)cc1 as well.
**Result** 646 nm

**Query** Please do the same for O=c1oc2ccccc2cc1-c1cn2ccccc2n1 as well.
**Result** 456 nm

**Query** Please do the same for Cc1ccc(C2=C3C=CC(C#Cc4ccccc4)=[N+]3[B-](F)(F)n3c(Cl)ccc32)cc1 as well.
**Result** 577 nm

**Query** Please do the same for O=C1c2ccccc2-c2ccc(N3CCOCC3)c3cccc1c23 as well.
**Result** 625 nm

**Query** Please do the same for Cc1ccc(CN(Cc2ccc(C)cc2)c2nc(C#N)c(N(Cc3ccc(C)cc3)Cc3ccc(C)cc3)nc2C#N)cc1 as well.
**Result** 592 nm

**Query** Please do the same for CCCCc1cc(-c2cccc(COC)c2)oc1-c1cccc(-c2oc(-c3cccc(COC)c3)cc2CCCC)c1 as well.
**Result** 371 nm

**Query** Please do the same for CCCCCCCCCCCCOc1ccc(C2=c3sc4ccccc4c3=[N+]3C2=Nc2c(-c4ccc(OCCCCCCCCCCCC)cc4)c4sc5ccccc5c4n2[B-]3(F)F)cc1 as well.
**Result** 808 nm

**Query** Please do the same for COc1cc2c3cc(OC)c(OC)cc3c3cc4c(C)cc(=O)oc4cc3c2cc1OC as well.
**Result** 491 nm

**Query** Please do the same for NC(=O)Cc1cccc2ccccc12 as well.
**Result** 325 nm

**Query** Please do the same for COc1ccc(N(c2ccc(OC)cc2)c2ccc(-c3ccc(-c4ccc(-c5ccc(-c6ccc(N(c7ccc(OC)cc7)c7ccc(OC)cc7)cc6)s5)c5nsnc45)s3)cc2)cc1 as well.
**Result** 710 nm

**Query** Please do the same for Cc1ccc(-n2c3ccccc3c3cc(C(=C(C#N)C#N)c4ccccc4)ccc32)cc1 as well.
**Result** 546 nm

**Query** Please do the same for CCCCCCCCC1(CCCCCCCC)c2cc(-c3ccccc3)ccc2-c2ccc(-c3ccccc3)cc21 as well.
**Result** 361 nm

**Query** Please do the same for N#Cc1coc2ccccc2c1=O as well.
**Result** 438 nm

**Query** Please do the same for CCCCn1c2ccc(-c3ccc(OC)cc3)cc2c2ccc3c4cc(-c5ccc(OC)cc5)ccc4n(CCCC)c3c21 as well.
**Result** 415 nm

**Query** Please do the same for CCCCCCCCC1(CCCCCCCC)c2cc(-c3ccc([Si](C)(C)C)cc3)ccc2-c2ccc(-c3ccc([Si](C)(C)C)cc3)cc21 as well.
**Result** 368 nm

**Query** Please do the same for F[B-]1(F)n2c(Nc3cccc4cccnc34)ccc2C(c2ccccc2)=C2C=CC(Cl)=[N+]21 as well.
**Result** 583 nm

**Query** Please do the same for Fc1ccc(-c2cc3c4c(c2)CCc2cc(-c5ccc(F)cc5)cc(c2-4)CC3)cc1 as well.
**Result** 379.68 nm

**Query** Please do the same for O=C1c2ccccc2-c2ccc(N3CCN(c4ccccc4)CC3)c3cccc1c23 as well.
**Result** 591 nm

**Query** Please do the same for Cc1cc(C(F)(F)F)nc2c1ccc1nc(-c3ccc(F)c(F)c3)cn12 as well.
**Result** 448 nm

* * *

# Test Name: solvent given as SMILES
# Stated Conditions: in Cc1ccccc1
Assign emission maximum to each entry below.
Please respond with the number in nm and leave the unit unwritten.

**Query** What value of emission maximum has been recorded for this entry: COCCC1=Cc2nc1ccc1[nH]c(cc1CCOC)c1nc(c(OC(C)=O)cc3[nH]c2cc3CCOC)C(CCOC)=C1
**Result** 652

**Query** Please do the same for CC1(C)c2ccccc2N2c3ccccc3C3(c4cc(C#N)ccc4-c4ccc(C#N)cc43)c3cccc1c32 as well.
**Result** 485.37

**Query** Please do the same for CCCCOc1ccc(-c2oc3cc4n(c3c2-c2ccc(OCCCC)cc2)[B-](F)(F)[N+]2=Cc3cc5oc(-c6ccc(OCCCC)cc6)c(-c6ccc(OCCCC)cc6)c5n3[B-](F)(F)[N+]2=C4)cc1 as well.
**Result** 641

**Query** Please do the same for COC(=O)/C(C#N)=c1\s/c(=c2/s/c(=C(/C#N)C(=O)OC)c3cc(-c4ccc(C)cc4)sc23)c2sc(-c3ccc(C)cc3)cc12 as well.
**Result** 652

**Query** Please do the same for CCN(CC)c1ccc(-c2nc3c(nc2-c2ccc(B(c4c(C)cc(C)cc4C)c4c(C)cc(C)cc4C)cc2)c2ccccc2n3C)cc1 as well.
**Result** 493

**Query** Please do the same for CC(C)CCCCN1CCc2c1ccc1c3c(ccc21)CCCC3=O as well.
**Result** 554

**Query** Please do the same for O=C1c2ccccc2-c2ccc(N3CCOCC3)c3cccc1c23 as well.
**Result** 568

**Query** Please do the same for CC1(C)c2ccccc2N(c2cc3c4ccccc4n4c5ccccc5c(c2)c34)c2ccccc21 as well.
**Result** 439

**Query** Please do the same for O=C1c2ccc(-c3ccc(N(c4ccccc4)c4ccccc4)cc3)cc2C(=O)c2ccc(-c3ccc(N(c4ccccc4)c4ccccc4)cc3)cc21 as well.
**Result** 597

**Query** Please do the same for CC(C)(C(=O)c1ccc(N2c3ccccc3C(C)(C)c3ccccc32)cc1)C(=O)c1ccc(N2c3ccccc3C(C)(C)c3ccccc32)cc1 as well.
**Result** 506

**Query** Please do the same for c1ccc(-c2cc(-c3ccc4ccc5cccc6ccc3c4c56)ccn2)nc1 as well.
**Result** 393

**Query** Please do the same for O=CN1N=C(c2ccc(Br)cc2)C[C@@H]1c1ccccc1 as well.
**Result** 349

**Query** Please do the same for Cc1ccc(N2C(c3ccccc3NS(=O)(=O)c3ccc(C)cc3)=NC(c3ccccc3)C2c2ccccc2)cc1 (stereo unspecified) as well.
**Result** 375

**Query** Please do the same for Oc1ccccc1-c1nc2c3ccccc3c3ccccc3c2o1 as well.
**Result** 367

**Query** Please do the same for CC(C)(C)c1ccc2c(c1)c1cc(C(C)(C)C)cc3c1n2-c1cc(-c2cccc(F)c2)cc2c1B3c1cc(C(C)(C)C)cc3c4cc(C(C)(C)C)ccc4n-2c13 as well.
**Result** 493.65

**Query** Please do the same for Nc1ccc(C#Cc2ccc3ccc4ccc(C#Cc5ccc(N)cc5)c5ccc2c3c45)cc1 as well.
**Result** 463

**Query** Please do the same for CN(C)c1ccc(C2=Nc3scc[n+]3[B-](F)(F)O2)cc1 as well.
**Result** 439

**Query** Please do the same for c1ccc([B-]2(c3ccccc3)Oc3ccc4ccccc4c3-c3c4ccccc4cn[n+]32)cc1 as well.
**Result** 555

**Query** Please do the same for CCC1(CC)c2ccccc2-c2ccc(C#Cc3cc(C#Cc4ccc5c(c4)C(CC)(CC)c4ccccc4-5)c4ccc5c(C#Cc6ccc7c(c6)C(CC)(CC)c6ccccc6-7)cc(C#Cc6ccc7c(c6)C(CC)(CC)c6ccccc6-7)c6ccc3c4c65)cc21 as well.
**Result** 549

**Query** Please do the same for Cc1nc(-c2ccc(N3c4ccccc4C(c4ccccc4)(c4ccccc4)c4ccccc43)cc2)cc(-c2ccc(N3c4ccccc4C(c4ccccc4)(c4ccccc4)c4ccccc43)cc2)n1 as well.
**Result** 453

**Query** Please do the same for Cc1c(C)c(N2c3ccccc3CCc3ccccc32)c(C)c(C)c1-c1nc(-c2ccccc2)nc(-c2ccccc2)n1 as well.
**Result** 457.94

**Query** Please do the same for N#Cc1c(N2c3ccccc3C(c3ccccc3)(c3ccccc3)c3ccccc32)cccc1N1c2ccccc2C(c2ccccc2)(c2ccccc2)c2ccccc21 as well.
**Result** 454

**Query** Please do the same for CCCCCCc1ccc2c3c(ccc2c1)O[B-](F)(F)[N+](c1ccc([N+]2=Cc4c(ccc5cc(CCCCCC)ccc45)O[B-]2(F)F)cc1)=C3 as well.
**Result** 508

**Query** Please do the same for O=C1NC(=O)c2c1c1c3ccccc3[nH]c1c1[nH]c3ccccc3c21 as well.
**Result** 465

**Query** Please do the same for CCC1=C(C)C2=C(C)c3c(C)c(-c4csc(N5CCOCC5)n4)c(C)n3[B-](F)(F)[N+]2=C1C as well.
**Result** 597

**Query** Please do the same for c1cc(-n2c3ccccc3c3ccccc32)c(-c2nc3ccccn3n2)c(-n2c3ccccc3c3ccccc32)c1 as well.
**Result** 397

**Query** Please do the same for N#Cc1c(-n2c3ccccc3c3cc(I)ccc32)c(-n2c3ccccc3c3cc(I)ccc32)c(C#N)c(-n2c3ccccc3c3cc(I)ccc32)c1-n1c2ccccc2c2cc(I)ccc21 as well.
**Result** 548

**Query** Please do the same for CCc1c(C)[nH]c(C2=[N+]3C(=Cc4c(C)cc(C)n4[B-]3(F)F)c3ccccc32)c1C as well.
**Result** 642

**Query** Please do the same for Cc1cc(N2c3ccccc3C3(c4ccccc4-c4ccccc43)c3ccccc32)c(C)cc1-c1nc(-c2ccccc2)nc(-c2ccccc2)n1 as well.
**Result** 486

**Query** Please do the same for c1cc2c3c(c1)-c1ccc4c5c(ccc(c15)B3c1ccc3c5c(ccc-2c15)CC3)CC4 as well.
**Result** 516

**Query** Please do the same for F[B-]1(F)n2cccc2C(c2ccc(-c3c4ccccc4c(-c4ccccc4)c4ccccc34)cc2)=C2C=CC=[N+]21 as well.
**Result** 524
